Test system: P. aeruginosa (1051575)
Experiment: Potentiation of erythromycin activity (combination MIC)
Type: cell-based, Pseudomonas aeruginosa
Conditions: erythromycin 2 μg/mL; concentration of compound required to restore antibiotic activity
Method: This method requires the use of a 96-well plate: 100 μL of a liquid culture medium are placed in each well and then seeded with the microbial suspension prepared previously. The required volume to be seeded is calculated for an OD of 0.01, which corresponds to about 5×10^6 bacteria in each well. […] The results are read (the determination of the MIC (2 μg/mL of doxycycline) in the presence of X g/mL of compound of formula (I)) after 24 hours of incubation at 37° C. under a humid atmosphere. […]
Below: a set of entries, each annotated with reported MIC P. aeruginosa (1051575) compound + erythromycin.
Assay metric: MIC P. aeruginosa (1051575) compound + erythromycin (µg/mL)

>  <Molecule>
CC(C)N(C(=O)CC[C@@H](C)[C@H]1CCC2C3C(CC[C@@]21C)[C@@]1(C)CC[C@H](NCCCNCCCN)CC1C[C@H]3O)C(C)C (stereo partly drawn) [(37)]

>  <U>
µg/mL

>  <Numeric value>
7

$$$$
>  <Molecule>
CCN(CC)C(=O)CC[C@@H](C)[C@H]1CCC2C3C(CC[C@@]21C)[C@@]1(C)CC[C@H](NCCCN(CCCN)CCCN)CC1C[C@H]3O (stereo partly drawn) [(44)]

>  <U>
µg/mL

>  <Numeric value>
8

$$$$

###

Test system: S. aureus Human ATCC 25923
Below: a set of entries, each annotated with reported MIC.

>  <Compound>
CC(C)NC(=O)CC[C@@H](C)[C@H]1CCC2C3CCC4C[C@@H](NCCCN5CCN(CCCN)CC5)CC[C@]4(C)C3CC[C@@]21C (some centres unmarked)

>  <MIC, mg/L>
8

$$$$
>  <Compound>
CC(C)N(C(=O)CC[C@@H](C)[C@H]1CCC2C3C(CC[C@@]21C)[C@@]1(C)CC[C@H](NCCCNCCCN)CC1C[C@H]3O)C(C)C (some centres unmarked)

>  <MIC, mg/L>
4

$$$$
>  <Compound>
CNC(=O)CC[C@@H](C)[C@H]1CCC2C3C(CC[C@@]21C)[C@@]1(C)CC[C@H](NCCCNCCCCNCCCN)CC1C[C@H]3O (some centres unmarked)

>  <MIC, mg/L>
3.5

$$$$
>  <Compound>
CC(C)NC(=O)CC[C@@H](C)[C@H]1CCC2C3CCC4C[C@@H](NCCCNCCCNCCCN)CC[C@]4(C)C3CC[C@@]21C (stereo partly drawn) [(17), 3β-norspermino-N-isopropyllithocholamide]

>  <MIC, mg/L>
8

$$$$
>  <Compound>
CC(C)NC(=O)CC[C@@H](C)[C@H]1CCC2C3CCC4C[C@@H](NCCNCCNCCNCCNCCN)CC[C@]4(C)C3CC[C@@]21C (some centres unmarked)

>  <MIC, mg/L>
8

$$$$
>  <Compound>
CC(C)NC(=O)CC[C@@H](C)[C@H]1CCC2C3C(C[C@H](O)[C@@]21C)[C@@]1(C)CC[C@H](NCCNCCNCCNCCNCCN)CC1C[C@H]3O (some centres unmarked)

>  <MIC, mg/L>
17

$$$$
>  <Compound>
CC(C)NC(=O)CC[C@@H](C)[C@H]1CCC2C3C(C[C@H](O)[C@@]21C)[C@@]1(C)CC[C@H](NCCCNCCCCNCCCN)CC1C[C@H]3O (stereo partly drawn) [Compound (31), 3β-spermino-N-isopropylcholamide]

>  <MIC, mg/L>
4

$$$$
>  <Compound>
CC(C)NC(=O)CC[C@@H](C)[C@H]1CCC2C3C(CC[C@@]21C)[C@@]1(C)CC[C@H](NCCCN(C)CCCN)CC1C[C@@H]3O (some centres unmarked)

>  <MIC, mg/L>
28

$$$$
>  <Compound>
CC(C)NC(=O)CC[C@@H](C)[C@H]1CCC2C3CCC4C[C@@H](NCCCNCCCNCCCN)CC[C@]4(C)C3C[C@H](O)[C@@]21C (stereo partly drawn) [Compound (1), 3β-norspermino-N-isopropyldeoxycholamide]

>  <MIC, mg/L>
4

$$$$
>  <Compound>
CC(C)N(C(=O)CC[C@@H](C)[C@H]1CCC2C3C(CC[C@@]21C)[C@@]1(C)CC[C@H](NCCCNCCCCNCCCN)CC1C[C@H]3O)C(C)C (some centres unmarked)

>  <MIC, mg/L>
4

$$$$
>  <Compound>
CCN(CC)C(=O)CC[C@@H](C)[C@H]1CCC2C3C(CC[C@@]21C)[C@@]1(C)CC[C@H](NCCCNCCCCNCCCN)CC1C[C@H]3O (some centres unmarked)

>  <MIC, mg/L>
4

$$$$
>  <Compound>
CC(C)NC(=O)CC[C@@H](C)[C@H]1CCC2C3C(CC[C@@]21C)[C@@]1(C)CC[C@H](NCCCNCCCCNCCCN)CC1C[C@@H]3O (some centres unmarked)

>  <MIC, mg/L>
16

$$$$
>  <Compound>
C[C@H](CCC(=O)NC1CCCCC1)[C@H]1CCC2C3C(CC[C@@]21C)[C@@]1(C)CC[C@H](NCCCNCCCCNCCCN)CC1C[C@H]3O (some centres unmarked)

>  <MIC, mg/L>
4

$$$$
>  <Compound>
CC(C)NC(=O)CC[C@@H](C)[C@H]1CCC2C3C(C[C@H](O)[C@@]21C)[C@@]1(C)CC[C@H](NCCCN(C)CCCN)CC1C[C@H]3O (some centres unmarked)

>  <MIC, mg/L>
28

$$$$
>  <Compound>
CC(C)NC(=O)CC[C@@H](C)[C@H]1CCC2C3C(C[C@H](O)[C@@]21C)[C@@]1(C)CC[C@H](NCCCN2CCN(CCCN)CC2)CC1C[C@H]3O (some centres unmarked)

>  <MIC, mg/L>
16

$$$$
>  <Compound>
CC(C)NC(=O)CC[C@@H](C)[C@H]1CCC2C3CCC4C[C@@H](NCCCNCCCCNCCCN)CC[C@]4(C)C3CC[C@@]21C (stereo partly drawn) [Compound (36), 3β-spermino-N-isopropyllithocholamide]

>  <MIC, mg/L>
3.75

$$$$
>  <Compound>
CNC(=O)CC[C@@H](C)[C@H]1CCC2C3C(CC[C@@]21C)[C@@]1(C)CC[C@H](NCCCNCCCNCCCN)CC1C[C@H]3O (some centres unmarked)

>  <MIC, mg/L>
7

$$$$
